Reference for the values: the supplement of paper PMC10567573

B1: ADD1 (parent)
chain: GEGTGSPPKWQIGEQEFEALMRML

# Variants of: B1
# Measurement protocol: protein stability index of a GFP-peptide fusion (GPS, HEK-293T) (PSI 1-6); higher = more stable;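 note: lentivirally expressed fusions sorted by FACS into six bins by GFP to DsRed ratio, PSI derived from sequencing read proportions per bin multiplied by bin number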
# Stated conditions: c terminus: a fixed tail appended
Measured protein stability index, listed per entry for reference.

>  <Mutant label>
I12Y

>  <protein stability index>
3.69

$$$$
>  <Mutant label>
I12F

>  <protein stability index>
3.09

$$$$
>  <Mutant label>
W10I

>  <protein stability index>
2.86

$$$$
>  <Mutant label>
P7D

>  <protein stability index>
3.09

$$$$
